Data origin, for the record: paper PMC8459971

Assay: Single-dose pharmacokinetics in monkeys (p.o. and i.v.)
Assay type: in vivo, monkey
Settings: monkey, plasma, 6 mg/kg, monkey, dose 6 mg/kg, Day 1, individual animals; read-out: exposure - AUC
value-kind: AUC
Value and unit, in that order.

Q) // AUC lookup, key: `CC#C[C@@H](CC(=O)O)c1ccc(OCC(C)=C(C)C)cc1`
A) 18200 ng·h/mL

---

Assay: Single-dose pharmacokinetics in rats (p.o. and i.v.)
Type: in vivo, rat
Conditions: rat, plasma, iv, 3 mg/kg, rat, 3 mg/kg i.v., 0.08 h, single animals; read-out: plasma conc
value-kind: concentration at 0.08 h

Q) Fill in: concentration at 0.08 h of CC#C[C@@H](CC(=O)O)c1ccc(OCC(C)=C(C)C)cc1 [CPL207280] is ___
A) 19200 ng/mL
